meta.source: paper PMC10734772

# strict inequality: melting point < 100 °C yields true (1), everything else yields false (0)

Solved entries (count: 5):
{"columns": ["MOLECULE SMILES", "ANSWER LABEL"],
 "data": [
  ["Cc1ccnc(Nc2cc(NC(=O)c3ccc(CN4CCOCC4)cc3)ccc2C)n1", "false (0)"],
  ["Cc1ccc(NC(=O)c2ccc(CN3CCN(c4ncccn4)CC3)cc2)cc1Br", "false (0)"],
  ["Cc1ccc(NC(=O)c2ccc(CN3CCN(c4ncccn4)CC3)cc2)cc1Nc1cnccn1", "false (0)"],
  ["COc1ccc(CN2CCN(Cc3ccc(C(=O)Nc4ccc(C)c(Br)c4)cc3)CC2)c(OC)c1OC", "false (0)"],
  ["Cc1ccnc(Nc2cc(NC(=O)c3ccc(CN4CCN(c5ncccn5)CC4)cc3)ccc2C)n1", "true (1)"]
]}

Consider the compound Cc1ccc(NC(=O)c2ccc(CN3CCOCC3)cc2)cc1Br . Is its melting point strictly less than 100 °C?
false (0)

Consider the compound COc1ccc(CN2CCN(Cc3ccc(C(=O)Nc4ccc(C)c(Nc5cc(C)ccn5)c4)cc3)CC2)c(OC)c1OC . Is its melting point strictly less than 100 °C?
true (1)
